# subject_of_test: T1, human NMI (N-myc Interacting protein) (human, UniProt Q13287 1-307, limits assumed)
# T1 construct: Immunogen and ELISA coating antigen; also called hNMI; antigen 1
# T1 sequence (looked up): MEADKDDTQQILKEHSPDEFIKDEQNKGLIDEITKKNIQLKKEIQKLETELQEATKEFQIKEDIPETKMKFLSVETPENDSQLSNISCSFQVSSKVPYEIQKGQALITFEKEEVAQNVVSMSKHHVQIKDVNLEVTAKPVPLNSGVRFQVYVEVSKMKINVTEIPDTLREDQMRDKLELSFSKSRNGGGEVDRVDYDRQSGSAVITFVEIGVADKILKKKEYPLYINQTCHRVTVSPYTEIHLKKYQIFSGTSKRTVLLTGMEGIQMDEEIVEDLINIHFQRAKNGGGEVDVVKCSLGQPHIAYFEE
# assay_summary: I-ELISA, hNMI coated 1 ug/mL; antibody 1.2207031 ng/mL
measure_name: OD450 (OD450)
Dear colleague, please return just the value in OD450, with no unit written.

Query: Please look up its OD450: 240B10-1 (antibody, V domains shown, Rabbit monoclonal antibody; also called 240B10-1-biotin (biotin-labelled form)) VH: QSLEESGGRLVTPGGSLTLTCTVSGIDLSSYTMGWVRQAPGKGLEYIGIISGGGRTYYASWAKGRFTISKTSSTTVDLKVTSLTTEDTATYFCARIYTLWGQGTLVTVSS VL: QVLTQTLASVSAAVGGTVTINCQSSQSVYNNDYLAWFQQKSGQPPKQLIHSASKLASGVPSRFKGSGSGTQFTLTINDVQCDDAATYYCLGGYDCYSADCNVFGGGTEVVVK
Reply: 0.077
